Target or test system: T1, RBFOX1 RRM RbFoxmut (Fox-RRM*) (Homo sapiens, UniProt Q9NWB1 109-208, R118D;E147R;N151S;E152T)
T1 sequence: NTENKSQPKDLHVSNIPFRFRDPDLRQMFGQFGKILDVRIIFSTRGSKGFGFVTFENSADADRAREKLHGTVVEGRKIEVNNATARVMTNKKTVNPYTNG
Procedure text: EMSA; HiTS-Eq, 1 nM pool, 10 min; buffer printed only for the single-RNA assays: 10 mM Tris pH 7.5, 150 mM NaCl, 3.4 mM EDTA, 0.001% NP-40, 30 C
Details: tags: His6 N-terminal (pET28a); label: 5' 32P
Over roughly 16,000 sequences, “ka relative to ugcaugu” has its median near 0.096; the highest 2% begin near 0.35. The list comes from a sample in which the highest values are over-represented; it also holds close analogues and randomly drawn sequences.

{"columns": ["Binder", "binding signal"],
 "data": [
  ["UAUUAUG (DNA:RNA) RNA: GGGAGACCGGAAUUCAGAUUGUCCUAUUAUGUUAAAUCCCGUCGUAGCCACCA DNA 1: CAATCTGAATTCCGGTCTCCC DNA 2: TGGTGGCTACGACGGGATT", "0.158 KA relative to UGCAUGU"],
  ["AUUACUA (DNA:RNA) RNA: GGGAGACCGGAAUUCAGAUUGUCCAUUACUAUUAAAUCCCGUCGUAGCCACCA DNA 1: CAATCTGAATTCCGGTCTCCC DNA 2: TGGTGGCTACGACGGGATT", "0.129 KA relative to UGCAUGU"],
  ["UAUCAUA (DNA:RNA) RNA: GGGAGACCGGAAUUCAGAUUGUCCUAUCAUAUUAAAUCCCGUCGUAGCCACCA DNA 1: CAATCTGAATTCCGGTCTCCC DNA 2: TGGTGGCTACGACGGGATT", "0.0784 KA relative to UGCAUGU"],
  ["GAGCUUG (DNA:RNA) RNA: GGGAGACCGGAAUUCAGAUUGUCCGAGCUUGUUAAAUCCCGUCGUAGCCACCA DNA 1: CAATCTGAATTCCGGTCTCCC DNA 2: TGGTGGCTACGACGGGATT", "0.253 KA relative to UGCAUGU"]
]}
